The reported measurements were obtained from PubChem BioAssay.

assay: 384-well plate pilot, post-Golgi transport modulator project, inhibition of yeast transport mutant growth (AID 636); conditions: absorbance 615 nm, about 18 h, hits give high values; also: test concentration not given here
The compounds listed here are annotated with their inhibition.
Give the number; % is assumed, so skip it.

>  <compound>
Cc1noc(C)c1CSc1nnc2n(-c3ccccc3)c(=O)c3ccccc3n12

>  <unit info>
%

>  <data value>
2.31

$$$$
>  <compound>
CC1CCCC(C(=O)OCc2ccccc2)N1 (stereo not drawn)

>  <unit info>
%

>  <data value>
-2.63

$$$$
>  <compound>
c1ccc(CN2C3=NCCCN3c3ccccc32)cc1

>  <unit info>
%

>  <data value>
-1.43

$$$$
>  <compound>
Cc1ccc(OC(=O)NC2CCS(=O)(=O)C2)cc1C (stereo not drawn)

>  <unit info>
%

>  <data value>
-2.11

$$$$
>  <compound>
O=C(N1CCCCCC1)N1CCN(S(=O)(=O)N2CCCCC2)CC1

>  <unit info>
%

>  <data value>
-2.76

$$$$

So, Cc1cccc(N2CCN(Cc3c(C)n(C)n(-c4ccccc4)c3=O)CC2)c1C ? Its inhibition was -2.47

Noted for COc1ccc(OC)c(C2=NOC(C(=O)NCCN3CCOCC3)C2)c1 (stereo not drawn) : its inhibition reads -1.18

Sure, the documented inhibition for CCCn1c(=O)c2ccccc2n2c(SCCOc3ccccc3F)nnc12 is 2.08

Record O=C(OCc1ccccc1F)c1ccc2c(c1)OCCO2 , field inhibition: -5.47

Lab note: CCN(CCNC(=O)C1CCN(S(=O)(=O)CC)CC1)c1ccccc1 gave inhibition of -7.84

response.value for CN(Cc1ccco1)C(=O)Cn1c(=O)oc2cc(S(=O)(=O)NCc3ccccc3)ccc21 (field: inhibition) = -2.67

Field inhibition (entry CCC(C(=O)OCC(=O)Nc1c(C)n(C)n(-c2ccccc2)c1=O)c1ccccc1 (stereo not drawn) ) reads -4.66

Data point: COc1cccc(OC)c1C(=O)Nc1cccc(C(C)=O)c1 ; inhibition = -6.27

Form field inhibition, entry Cc1ccc(C)c(N(CC(=O)NCc2ccco2)C(=O)CCC(=O)Nc2ccccn2)c1 : -3.25

# inhibition of COc1ccc(-n2c(SCC(=O)c3c(N)n(C)c(=O)n(C)c3=O)nc3ccccc32)cc1 = -4.73

Noted for CCOC(=O)c1ccc(CC2S/C(=C(\C#N)C(C)=O)NC2=O)cc1 (stereo not drawn) : its inhibition reads -6.53

Given item Cc1cc(C)c(C)c(OCC(=O)NCC2CCCO2)c1 (stereo not drawn) , the value recorded as its inhibition is -3.38

inhibition recorded for this compound, COc1ccc(-n2c(SCC(=O)Nc3ccc(C(=O)O)cc3)nnc2-c2cccs2)cc1 , is -1.97

Given item FC(F)(F)c1cc(-c2ccco2)nc(N2CCOCC2)n1 , the value recorded as its inhibition is -6.93
